Origin of values: paper PMC7894572

# key: entry, value: CC50
Experiment: in vitro
Settings: African green monkey
Please state the figure in µM; there is no need to write the unit.

molecule="C[C@H](c1cccc2ccccc12)N1Cc2ccccc2C1.Cl [Compound 14 h]" reported_endpoint=CC50 endpoint_unit=µM recorded_result=442

Now turn to the next molecule.
Query :: Could you tell me which CC50 is on file for C[C@@H](NC(=O)c1ccccc1Cl)c1cccc2ccccc12 [Compound 2 i] ?
Result :: 376

---

Biological target: SARS‐CoV PL^pro (Severe acute respiratory syndrome coronavirus, UniProt P0C6X7)
Assay: biochemical
Format: biochemical
Reported endpoint: Inhibition of SARS‐CoV PL^pro, in words

compound="Cc1ccccc1C(=O)NC(c1ccccc1)c1ccccc1 [Compound 4 c, N ‐(Diphenylmethyl)‐2‐methylbenzamide]" reported_endpoint="Inhibition of SARS‐CoV PL^pro, in words" recorded_result=inactive
compound="C[C@@H](NC(=O)C1CCCCC1)c1cccc2ccccc12 [Compound 2 j]" reported_endpoint="Inhibition of SARS‐CoV PL^pro, in words" recorded_result=inactive

---

Biological target: SARS‐CoV PL^pro (Severe acute respiratory syndrome coronavirus, UniProt P0C6X7)
Experiment: biochemical
Assay type: biochemical
# key: entry, value: log10 IC50
// units: µM (pre-log); metric: IC50; scale: log10

compound=C[C@H](c1cccc2ccccc12)N1Cc2cccc(N)c2C1 recorded_result=1.51
compound="C[C@@H](NC(=O)c1ccccc1)c1cccc2ccccc12 [Compound 2 c, N ‐[(1R)‐1‐Naphth‐1‐ylethyl]benzamide]" recorded_result=1.79
compound=C[C@H](c1cccc2ccccc12)N1Cc2ccccc2C1.Cl recorded_result=0.46
compound=CNS(=O)(=O)c1ccc(C)c(C(=O)N[C@H](C)c2cccc3ccccc23)c1 recorded_result=0.60
compound=C[C@@H](NC(=O)c1ccccc1Cl)c1cccc2ccccc12 recorded_result=0.81
compound=C[C@@H](NC(=O)c1ccccc1F)c1cccc2ccccc12 recorded_result=0.95
compound=C[C@@H](NC(=O)c1ccccc1C#N)c1cccc2ccccc12 recorded_result=1.26
compound=C[C@H](c1cccc2ccccc12)N1Cc2ccc(O)cc2C1 recorded_result=0.65

Query :: Could you tell me which log10 IC50 is on file for C[C@H](c1cccc2ccccc12)N1Cc2ccc(N)cc2C1 ?
Result :: 0.69

Query :: Same question, Cc1ccsc1C(=O)N[C@H](C)c1cccc2ccccc12 this time
Result :: 1.15

Query :: Same question, Cc1ccc(N(C)C)cc1C(=O)N[C@H](C)c1cccc2ccccc12 this time
Result :: 0.60

Query :: Same question, Cc1cc(NC(=O)OC(C)(C)C)ccc1C(=O)N[C@H](C)c1cccc2ccccc12 this time
Result :: 0.20

Query :: Same question, COc1ccc2c(c1)CN([C@H](C)c1cccc3ccccc13)C2 this time
Result :: 1.15

---

Target: SARS‐CoV‐2 PL^pro (Severe acute respiratory syndrome coronavirus 2)
Assay: biochemical
Format: biochemical
Each record is given rule met if its reported IC50 is strictly below 20 µM. Records at or above 20 µM are given rule not met.

Observe how each entry below is paired with its result.
compound="C[C@H](c1cccc2ccccc12)N1Cc2ccccc2C1.Cl [Compound 14 h]" category="rule met"
compound="C[C@@H](NC(=O)c1ccccc1Cl)c1cccc2ccccc12 [Compound 2 i]" category="rule met"
compound="Cc1cc(N)ccc1C(=O)N[C@H](C)c1cccc2ccccc12.Cl [Compound 2 p]" category="rule met"
compound="Cc1ccc(N(C)C)cc1C(=O)N[C@H](C)c1cccc2ccccc12 [Compound 2 r]" category="rule met"
compound="Cc1ccsc1C(=O)N[C@H](C)c1cccc2ccccc12 [Compound 2 n]" category="rule not met"
compound="C[C@H](c1cccc2ccccc12)N1Cc2ccc(N)cc2C1 [Compound 14 k]" category="rule not met"
compound="Cc1cc(NS(C)(=O)=O)ccc1C(=O)N[C@H](C)c1cccc2ccccc12 [Compound 2 s]" category="rule met"

Kindly review the next compound as well.
Query :: Given the entry Cc1ccccc1C(=O)N[C@H](C)c1cccc2ccccc12 [Compound 2 a, reference compound] , would its reported IC50 be below 20 µM?
Result :: rule met

---

Assay: in vitro
Conditions: African green monkey
Reported endpoint: CC50

cpd_smiles=C[C@H](c1cccc2ccccc12)N1Cc2ccc(N)cc2C1 recorded_result="> 500 µM"

Query :: Could you tell me which CC50 is on file for Cc1cc(N)ccc1C(=O)N[C@H](C)c1cccc2ccccc12.Cl ?
Result :: > 500 µM

Query :: Same question, Cc1ccsc1C(=O)N[C@H](C)c1cccc2ccccc12 this time
Result :: > 500 µM

---

Molecular target: SARS‐CoV PL^pro (Severe acute respiratory syndrome coronavirus)
Assay: biochemical
Format: biochemical
# key: entry, value: IC50
Please state the figure in µM; there is no need to write the unit.

cpd_smiles=Cc1ccc(NC(=O)OC(C)(C)C)cc1C(=O)N[C@H](C)c1cccc2ccccc12 recorded_result=4.6
cpd_smiles=C[C@@H](NC(=O)c1ccccc1I)c1cccc2ccccc12 recorded_result=25
cpd_smiles=Cc1cc(NS(C)(=O)=O)ccc1C(=O)N[C@H](C)c1cccc2ccccc12 recorded_result=4.8

Now turn to the next compound.
Query :: Could you tell me which IC50 is on file for C[C@@H](NC(=O)c1ccccc1Br)c1cccc2ccccc12 ?
Result :: 11
